test target: αv integrin (Homo sapiens, UniProt P06756)
Construct: three primary cell cultures
Sequence (P06756 31-1048): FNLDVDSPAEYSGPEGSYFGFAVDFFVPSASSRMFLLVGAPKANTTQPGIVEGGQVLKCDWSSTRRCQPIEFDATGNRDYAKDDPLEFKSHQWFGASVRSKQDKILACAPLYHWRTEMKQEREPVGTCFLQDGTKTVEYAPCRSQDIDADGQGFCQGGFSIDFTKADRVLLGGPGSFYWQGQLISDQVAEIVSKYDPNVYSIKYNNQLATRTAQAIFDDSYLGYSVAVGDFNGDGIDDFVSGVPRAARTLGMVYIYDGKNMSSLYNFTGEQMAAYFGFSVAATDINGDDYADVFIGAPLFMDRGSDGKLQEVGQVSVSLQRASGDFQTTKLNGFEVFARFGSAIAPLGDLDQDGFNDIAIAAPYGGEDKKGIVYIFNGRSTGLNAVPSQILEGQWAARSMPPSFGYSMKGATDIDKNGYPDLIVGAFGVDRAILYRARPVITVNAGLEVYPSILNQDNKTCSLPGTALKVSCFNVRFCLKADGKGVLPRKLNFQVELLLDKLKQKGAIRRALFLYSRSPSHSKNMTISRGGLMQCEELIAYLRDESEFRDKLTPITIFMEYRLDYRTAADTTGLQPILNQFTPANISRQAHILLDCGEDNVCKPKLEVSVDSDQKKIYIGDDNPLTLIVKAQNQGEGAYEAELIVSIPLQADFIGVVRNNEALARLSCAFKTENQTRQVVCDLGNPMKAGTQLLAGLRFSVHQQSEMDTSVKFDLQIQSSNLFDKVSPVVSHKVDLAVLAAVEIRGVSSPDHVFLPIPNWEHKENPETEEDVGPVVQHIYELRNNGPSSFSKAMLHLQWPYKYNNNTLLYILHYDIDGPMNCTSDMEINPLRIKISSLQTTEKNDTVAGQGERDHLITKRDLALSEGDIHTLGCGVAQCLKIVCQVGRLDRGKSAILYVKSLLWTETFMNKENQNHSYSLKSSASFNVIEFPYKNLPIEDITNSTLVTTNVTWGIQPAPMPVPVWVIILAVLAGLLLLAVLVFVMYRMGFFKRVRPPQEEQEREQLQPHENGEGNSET
assay remarks: Cell adhesion assay: HMVEC adhesion to vitronectin coated plates
condition info: human dermal microvascular endothelial cells, 1.5 h at 37° C., read-out: IC50 to block adhesion of HMVEC to vitronectin
quantity name: IC50 (µM)

O=C(O)CC(CCCCCCc1ccc2c(n1)NCCC2)c1cnc2ccc(F)cc2c1 (stereo not shown) | 0.042
O=C(O)CC(CCCCCCc1ccc2c(n1)NCCC2)c1cnc2cc(C(F)(F)F)ccc2c1 (stereo not shown) | 0.13
O=C(O)CC(CCCCCCc1ccc2c(n1)NCCC2)c1cnc2cc(F)ccc2c1 (stereo not shown) | 0.25
O=C(O)CC(CCCCCCc1ccc2c(n1)NCCC2)c1cnc(C(F)(F)F)nc1 (stereo not shown) | 0.16
O=C(O)CC(CCCCCCc1ccc2c(n1)NCCC2)c1ccc(OC(F)F)nc1 (stereo not shown) | 0.62

A. O=C(O)C[C@@H](c1ccc(OC(F)F)nc1)N1CCN(CCCc2ccc3c(n2)NCCC3)C1=O
B. O=C(O)CC(CCCCCCc1ccc2c(n1)NCCC2)c1cnc2cc(F)c(F)cc2c1 (stereo not shown)
Sort A and B by IC50 descending and give the first. Respond using the label that marks the chosen record. B
